System: CP66-MEL;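 further: growth inhibition of CP66-MEL cells determined in a cell viability assay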
method-notes: cells
Type: functional, cell-based, Homo sapiens
stated-conditions: Homo sapiens, CP66-MEL
Description: SANGER: Inhibition of human CP66-MEL cell growth in a cell viability assay.
measured-property: IC50

Param item = CC(=O)O[C@@H]1[C@@H](OC(C)=O)[C@@H](O)[C@H](Oc2c(-c3ccc(O)cc3)oc3cc(O)cc(O)c3c2=O)O[C@H]1C ; retrieve measured IC50. > 10 µM

Now the compound CCc1nc(N)nc(N)c1-c1ccc(Cl)cc1 > 20 µM

Now the compound Nc1ccn([C@@H]2O[C@H](CO)[C@@H](O)[C@@H]2O)c(=O)n1 > 2 µM

Now the compound CN(C)C/C=C/C(=O)Nc1cc2c(Nc3ccc(F)c(Cl)c3)ncnc2cc1O[C@H]1CCOC1 > 0.5 µM

Now the compound COC(=O)CNC(=O)C(=O)OC 445 µM

Now the compound Cc1cc([C@@H](C)Nc2ccccc2C(=O)O)c2nc(N3CCOCC3)cc(=O)n2c1 > 5.12 µM

Now the compound CCC1=C[C@@H]2CN(C1)Cc1c([nH]c3ccccc13)[C@@](C(=O)OC)(c1cc3c(cc1OC)N(C)[C@H]1[C@@](O)(C(=O)OC)[C@H](OC(C)=O)[C@]4(CC)C=CCN5CC[C@]31[C@@H]54)C2 0.0451 µM

###

Tested on: KYSE-410;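 further: growth inhibition of KYSE-410 cells, measured through a cell viability readout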
method-notes: cells
Format: functional, cell-based, Homo sapiens
stated-conditions: Homo sapiens, KYSE-410
Description: SANGER: Inhibition of human KYSE-410 cell growth in a cell viability assay.
pIC50: −log10 of the molar value.
Would you kindly list pIC50 for each of these molecules?

Param item = COc1ccc(C2=N[C@@H](c3ccc(Cl)cc3)[C@@H](c3ccc(Cl)cc3)N2C(=O)N2CCNC(=O)C2)c(OC(C)C)c1 ; retrieve measured pIC50. < 5.10

Now the molecule CC(=O)O[C@@H]1[C@@H](OC(C)=O)[C@@H](O)[C@H](Oc2c(-c3ccc(O)cc3)oc3cc(O)cc(O)c3c2=O)O[C@H]1C < 5.00

Now the molecule CN(C)C/C=C/C(=O)Nc1cc2c(Nc3ccc(F)c(Cl)c3)ncnc2cc1O[C@H]1CCOC1 < 6.30

Now the molecule COC(=O)CNC(=O)C(=O)OC 4.68

###

Would you kindly list IC50 for each of these molecules?
Tested on: NCI-H1882;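 further: growth inhibition of the cell line, determined with a viability assay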
method-notes: cells
Assay type: functional, cell-based
stated-conditions: Homo sapiens
Description: SANGER: Inhibition of human NCI-H1882 cell growth in a cell viability assay.

Entry CCC1=C[C@@H]2CN(C1)Cc1c([nH]c3ccccc13)[C@@](C(=O)OC)(c1cc3c(cc1OC)N(C)[C@H]1[C@@](O)(C(=O)OC)[C@H](OC(C)=O)[C@]4(CC)C=CCN5CC[C@]31[C@@H]54)C2 [VINORELBINE] , system NCI-H1882: what IC50 was measured? 0.0365 µM

Now the molecule O=C(/C=C/c1ccccc1)NC(NC(=S)Nc1cccc2cccnc12)C(Cl)(Cl)Cl (stereo not drawn) [SALUBRINAL] > 16 µM

Now the molecule CCc1nc(N)nc(N)c1-c1ccc(Cl)cc1 [PYRIMETHAMINE] > 20 µM

###

Would you kindly list pIC50 for each of these compounds?
Test system: NB10;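 further: growth inhibition of NB10 cells, read out by a cell viability assay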
method-notes: cells
Format: functional, cell-based, Homo sapiens
stated-conditions: Homo sapiens, NB10
Description: SANGER: Inhibition of human NB10 cell growth in a cell viability assay.
pIC50: −log10 of the molar value.

Param item = C=CCc1cccc(/C=N/NC(=O)CN2CCN(Cc3ccccc3)CC2)c1O ; retrieve measured pIC50. < 5.59

Now the compound CN(C)C/C=C/C(=O)Nc1cc2c(Nc3ccc(F)c(Cl)c3)ncnc2cc1O[C@H]1CCOC1 < 6.30

Now the compound O=c1cc(-c2cccc3c2Sc2ccccc2S3)oc(N2CCOCC2)c1 < 5.00

Now the compound C=C1C(=O)O[C@@H]2C3O[C@]3(C)CC/C=C(\C)CC[C@@H]12 (stereo not given in full) < 5.30

Now the compound COc1cc(F)c(F)c(Nc2ccc(I)cc2F)c1NS(=O)(=O)C1(CC(O)CO)CC1 (stereo not given) < 5.30
